biological target: TICA0162 Fab; test: HTRF competition binding selectivity assay, TICA0162 His-Fab; set-up: species or system human; details: Table 7, DMSO normalised; 5 nM biotinylated ticagrelor, 1 nM His Fab; read-out: IC50 (uM) for inhibition of biotinylated ticagrelor binding to TICA0162 Fab
METRIC: IC50 (µM)

1) CCCSc1nc(N[C@@H]2C[C@H]2c2ccc(F)c(F)c2)c2nnn([C@@H]3C[C@H](OCCO)[C@@H](O)[C@H]3O)c2n1 ... 0.023
2) CCCSc1nc(N[C@@H]2C[C@H]2c2ccc(F)c(F)c2)c2nnn([C@@H]3C[C@H](O)[C@@H](O)[C@H]3O)c2n1 ... 0.032
